- targetSystem: ligand binding domain of human RORγ (A262-S507) (Homo sapiens, UniProt P51449)
- Construct: made in house; host or cells: E. coli
- Sequence (P51449 262-507): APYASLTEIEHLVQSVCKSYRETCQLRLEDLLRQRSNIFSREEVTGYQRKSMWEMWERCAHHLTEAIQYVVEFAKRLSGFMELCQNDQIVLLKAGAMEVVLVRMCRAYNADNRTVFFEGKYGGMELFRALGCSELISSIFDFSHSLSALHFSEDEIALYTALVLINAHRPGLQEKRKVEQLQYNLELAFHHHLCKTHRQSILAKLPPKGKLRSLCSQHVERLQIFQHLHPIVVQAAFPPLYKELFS
- assayMethodText: General RORγ SPA binding assay (competition with [3H]25-hydroxycholesterol)
- settings: RORγ SPA binding assay, inhibition of [3H]25-hydroxycholesterol binding; read-out: IC50
testReadout: IC50 (nM)

Consider the reported IC50 for these compounds:
compound	targetSystem	numericReadout
Cc1nc(C)c(-c2nnc(-c3ccnc(C(F)(F)F)n3)o2)c(C2CCN(S(=O)(=O)Cc3ccccc3F)CC2)n1 [Compound C34]	ligand binding domain of human RORγ (A262-S507) (Homo sapiens, UniProt P51449)	87.1
Cc1nc(C)c(-c2nc(-c3cccc(Cl)c3)no2)c(C2CCN(C(=O)Cc3c(F)cccc3F)CC2)n1 [Compound C4]	ligand binding domain of human RORγ (A262-S507) (Homo sapiens, UniProt P51449)	620
Cc1cc(CNC(=O)c2cnc(C)nc2C2CCN(C(=O)Cc3c(F)cccc3F)CC2)ccn1 [Compound A70]	ligand binding domain of human RORγ (A262-S507) (Homo sapiens, UniProt P51449)	213
Cc1ncc(C(=O)NCc2cccc(C#N)c2)c(C2CCN(C(=O)Cc3c(F)cccc3F)CC2)n1 [Compound A50]	ligand binding domain of human RORγ (A262-S507) (Homo sapiens, UniProt P51449)	7.1
Cc1nc(N)nc(C2CCN(C(=O)Nc3c(F)cccc3C(F)(F)F)CC2)c1-c1nnc(-c2ccnc(C(F)(F)F)n2)o1 [Compound C49]	ligand binding domain of human RORγ (A262-S507) (Homo sapiens, UniProt P51449)	23.3

(1) Cc1ncc(C(F)(F)COc2cccc(C(F)(F)F)n2)c(C2CCN(C(=O)Nc3c(F)cccc3C(F)(F)F)CC2)n1 [Compound N15]
(2) Cc1cc(C)cc(CNC(=O)c2cnc(C)nc2C2CCN(C(=O)Cc3ccccc3[N+](=O)[O-])CC2)c1 [Compound A15]
Dear colleague, could you let me know whether 1 or 2 has the lower recorded IC50? Thanks. Identify your selection by its label.
1
